Experiment: Human HepG2 cell viability assay in 384 well format
Type: toxicity, cell-based
Design: dose 125 nL, time 70.5 hour; concentration not given beside the values
Details: HepG2 cells, read-out: Inhibition
cytotoxicity at 70.5 h listing for selected compounds.
Please state the figure in %; there is no need to write the unit.

INSERT INTO assay_data (compound, property_label, reading) VALUES
  ('CCN(C)c1ncnc2c1CCN(C(=O)N(C)C)CC2', 'cytotoxicity at 70.5 h', 0.982),
  ('CC(=O)c1cn(CC(=O)NC(C(=O)O)C(C)C)c2ccccc12 (stereo unspecified)', 'cytotoxicity at 70.5 h', 0.278),
  ('CN(Cc1cn(C2CCNCC2)nn1)CC1CCCO1 (stereo unspecified)', 'cytotoxicity at 70.5 h', -9.31),
  ('COc1ccc(/C=C/CN2CCN(c3nccnc3C)CC2)cc1', 'cytotoxicity at 70.5 h', -5.85),
  ('CC1CN(C(=O)c2ccn(C)c(=O)c2)c2ccccc2NC1=O (stereo unspecified)', 'cytotoxicity at 70.5 h', -2.71),
  ('O=C(NCCC1CCN(CC(F)(F)F)CC1)C1CCCO1 (stereo unspecified)', 'cytotoxicity at 70.5 h', -1.77),
  ('c1coc(-c2nc3c(c(N4CCCN5CCC[C@H]5C4)n2)CCNCC3)c1', 'cytotoxicity at 70.5 h', -2.19),
  ('Cc1ocnc1C(=O)N[C@H]1CN(CC2CCC2)C[C@@H]1C(C)C', 'cytotoxicity at 70.5 h', -1.41);

Exam item: Give its cytotoxicity at 70.5 h value. Item: `O=C(CN1CCN(c2nccs2)CC1)Nc1cccnc1`
Marked response: -7.83

Exam item: Check `CCN(CC)c1ncc2c(O)nc(C3CCNCC3)cc2n1` too.
Marked response: -4.7

Exam item: What do you get for `Cc1nnc(N2C[C@H](C(=O)NCc3ccco3)[C@@H]3CCO[C@@H]3C2)s1` ?
Marked response: -1.66

Exam item: c1ccc(Cc2noc(CN3CCCCC3Cn3cccn3)n2)cc1 (stereo unspecified) ?
Marked response: -9.87

Exam item: Repeat for the following compound: `Cc1cc(CSCc2csc(CS(C)(=O)=O)n2)no1`
Marked response: 2

Exam item: Now this one: `Cc1cc(-c2cnc(N3CCNC(=O)C3)nc2-c2sccc2C)on1`
Marked response: -6.64

Exam item: Please do the same for `Cc1ccccc1C(=O)CN1C(=O)c2ccccc2CS1(=O)=O` as well.
Marked response: 5.68

Exam item: // repeat for `O=c1c(CN2CCCCC2)coc2ccc(Cl)cc12` and report
Marked response: -7.22

====

Assay: Human HepG2 cell viability assay in 384 well format
Assay type: toxicity, cell-based
Parameters: dose 125 nL, time 70.5 hour; concentration not given beside the values
Conditions: HepG2 cells, read-out: Inhibition
Exam item: assign TRUE to entries whose cytotoxicity at 70.5 h is below 10% and FALSE to entries at or above 10%. Note that a value of exactly 10% receives FALSE.

# count of solved cases: 5
INSERT INTO measurements (molecule, class) VALUES
  ('CCn1cnnc1C1CCN(C(=O)CC(C)n2cccc2)CC1 (centres undefined)', 'TRUE'),
  ('CN(Cc1nc2ccsc2c(=O)[nH]1)C[C@@H]1CCCN2CCCC[C@H]12', 'FALSE'),
  ('CC(C(N)=O)S(=O)(=O)Cc1cc(Cl)c2c(c1)OCO2 (centres undefined)', 'TRUE'),
  ('NC(=O)c1ccc(C2CCCNC2)nc1 (centres undefined)', 'TRUE'),
  ('COCCCSc1ccc(NC(=O)Nc2cn[nH]c2)cc1', 'FALSE');

Exam item: I wonder whether `CCn1nnc(NCc2cc(Cl)cc(Cl)c2OC)n1` has cytotoxicity at 70.5 h below 10%. Can you tell?
Marked response: FALSE

Exam item: Another: `CCCn1nc(C(=O)NC2(c3ccc(Cl)cc3)CCCC2)ccc1=O`
Marked response: TRUE

Exam item: Try this molecule too: `COc1ccc(Cl)cc1-n1cnc(CCNC(C)=O)c1`
Marked response: TRUE

Exam item: How about O=C1N(Cc2ccc(F)c(F)c2)CCCC12CCN(C1CCCCC1)C2 (centres undefined) ?
Marked response: TRUE

Exam item: Another: `CSc1nccc(N2CCC(NCc3ccc4nsnc4c3)CC2)n1`
Marked response: FALSE

Exam item: Please answer likewise for `CCc1cc(NCCCOC2CCN(C)CC2)ncn1`
Marked response: TRUE

Exam item: Consider next the molecule `CCc1nc(CN2CCCN(c3nn4cc(C)nc4s3)CC2)no1` in the same way.
Marked response: FALSE

Exam item: Then what about the molecule Nc1cc2c(nn1)CCN(C(=O)C1CCc3ccccc31)C2 (centres undefined) ?
Marked response: TRUE

Exam item: Another molecule to look at: Cc1nc(N2CCCOC(Cn3cccn3)C2)c2sccc2n1 (centres undefined)
Marked response: TRUE

====

Examples of compounds with documented cytotoxicity at 70.5 h follow.
Assay: Human HepG2 cell viability assay in 384 well format
Assay type: toxicity, cell-based
Parameters: dose 125 nL, time 70.5 hour; concentration not given beside the values
Conditions: HepG2 cells, read-out: Inhibition
Answer format: numeric, % implied, no suffix.

Worked examples, 2 compounds total:
INSERT INTO assay_data (compound, reading) VALUES
  ('Cc1noc(C2CCCN(C(=O)CCNc3ncccn3)C2)n1 (stereo not drawn)', -13.2),
  ('Cc1c(C(=O)NCCC(=O)N2CCOCC2)sc2ccc(F)cc12', 1.17);

Turning to the following compound.
Exam item: What value of cytotoxicity at 70.5 h has been reported for the following compound? `CCNc1ncc2c(n1)CN(c1ccc(C)c(C)c1)C2=O`
Marked response: -11.2

====

Experiment: Human HepG2 cell viability assay in 384 well format
Format: toxicity, cell-based
Design: dose 125 nL, time 70.5 hour; concentration not given beside the values
Settings: HepG2 cells, read-out: Inhibition
property label: cytotoxicity at 70.5 h (%)
Write the number in % without appending the unit.

INSERT INTO assay_data (compound, reading) VALUES
  ('O=C(c1cccnc1O)N1CCOC(c2ccc(Cl)cc2)C1 (configuration not stated)', -0.483),
  ('Cc1ccc(CN2CCCC3(CCN(S(=O)(=O)N(C)C)C3)C2)o1 (configuration not stated)', -9.63),
  ('Cc1cc(C)c(CNC(=O)NCC2COc3ccccc3C2)c(=O)[nH]1 (configuration not stated)', -10.2),
  ('CN(C)[C@@H]1CCN(C(=O)NC2CCCC2)[C@H]1Cc1ccncc1', -9.4),
  ('NCCc1nc(N[C@@H](CO)c2ccccc2)c2ccccc2n1', 7.85),
  ('CC(C)(C)C(C#N)NC(=O)c1ccc(Oc2cccnc2)cc1 (configuration not stated)', -8.31);

Exam item: So what does the record say about cytotoxicity at 70.5 h for CCC1CN(C(=O)NCc2cccnc2-n2cccn2)CCO1 (configuration not stated) ?
Marked response: -5.61

====

Experiment: Human HepG2 cell viability assay in 384 well format
Assay type: toxicity, cell-based
Set-up: dose 125 nL, time 70.5 hour; concentration not given beside the values
Details: HepG2 cells, read-out: Inhibition
property label: cytotoxicity at 70.5 h (%)
Form entry: value (%) — number only.

INSERT INTO results (molecule, property_label, reading) VALUES
  ('N#Cc1cccc(C(=O)N2CCCC(C(=O)CCc3ccccc3)C2)c1 (stereo unspecified)', 'cytotoxicity at 70.5 h', -5.64),
  ('Cc1nc(-c2ccco2)ccc1C(=O)NCCC(=O)N1CCCCC1', 'cytotoxicity at 70.5 h', -103);

Exam item: For the molecule shown here, `CN(Cc1ccc(-n2cccn2)cc1)c1nc(N)nc2c1CCNCC2` , give the reported cytotoxicity at 70.5 h.
Marked response: 12.6

====

Test: Human HepG2 cell viability assay in 384 well format
Format: toxicity, cell-based
Set-up: dose 125 nL, time 70.5 hour; concentration not given beside the values
Settings: HepG2 cells, read-out: Inhibition
Measured cytotoxicity at 70.5 h accompanies every entry in the list below.
I only need the number, in %, no unit after it.

Recorded cytotoxicity at 70.5 h, per entry:
INSERT INTO measurements (molecule, property_label, unit_tag, reading) VALUES
  ('CC(=O)NC(C)C1=CCCN(Cc2ccc(C(=O)O)cc2)C1 (stereo not drawn)', 'cytotoxicity at 70.5 h', '%', 2.27),
  ('CCC(NC(=O)c1nn(C)cc1C(=O)O)c1ccc(C)cc1C (stereo not drawn)', 'cytotoxicity at 70.5 h', '%', -6.11),
  ('O=C(c1cccs1)N1CC[C@H](O)[C@@H]1Cc1ccccc1', 'cytotoxicity at 70.5 h', '%', 29.4),
  ('O=C(Nc1cccc(OCC(F)F)n1)c1ccncc1F', 'cytotoxicity at 70.5 h', '%', -6.41),
  ('O=S(=O)(CCN1CCCCC1Cn1cccn1)c1ccccc1 (stereo not drawn)', 'cytotoxicity at 70.5 h', '%', -28.3),
  ('Cc1csc(C2(NC(=O)NCCN3CCOCC3)CCC2)n1', 'cytotoxicity at 70.5 h', '%', -8.41),
  ('CN(Cc1ccc(Cl)s1)C(=O)COc1cccc(C(N)=O)c1', 'cytotoxicity at 70.5 h', '%', -26.8);

Exam item: Suppose we examine the molecule CN(C)c1cc(C(=O)N2CCCC2c2cnn(C)c2)ccn1 (stereo not drawn) ; what cytotoxicity at 70.5 h value has been reported?
Marked response: 4.19

From: ChEMBL document CHEMBL3507680
